Tested on: OVCAR-3
Assay: NCI SRB cytotoxicity, Ovarian OVCAR-3
Type: cell-based, human
Settings: OVCAR-3, Ovarian, 48 h
value_kind: Log GI 50 (mol/L)
A number alone suffices; assume mol/L.

{"chemical_structure": "COc1cc2c(cc1OCCCCN1CCN(CCCCOc3cc4c(cc3OC)C(=O)N3CCC[C@H]3C=N4)CC1)N=C[C@@H]1CCCN1C2=O", "u": "mol/L", "Log GI 50": "−7.91"}
{"chemical_structure": "COc1cc2c(cc1OCCCCCN1CCN(CCCCCOc3cc4c(cc3OC)C(=O)N3CCC[C@H]3C=N4)CC1)N=C[C@@H]1CCCN1C2=O", "u": "mol/L", "Log GI 50": "−5.32"}
{"chemical_structure": "COc1cc2c(cc1OCCCN1CCN(CCCOc3cc4c(cc3OC)C(=O)N3CCC[C@H]3C=N4)CC1)N=C[C@@H]1CCCN1C2=O", "u": "mol/L", "Log GI 50": "−5.47"}

Prompt line: Can you share its Log GI 50? I mean this compound: COc1cc2c(cc1OCCN1CCN(CCOc3cc4c(cc3OC)C(=O)N3CCC[C@H]3C=N4)CC1)N=C[C@@H]1CCCN1C2=O
Response line: −4.68

----------
Tested on: COLO 205
Test: NCI SRB cytotoxicity, Colon COLO 205
Assay type: cell-based, human
Settings: COLO 205, Colon, 48 h
value_kind: Log LC 50 (mol/L)
The reply should be a number in mol/L, with the unit left off.

Prompt line: Which Log LC 50 value is on record for COc1cc2c(cc1OCCCN1CCN(CCCOc3cc4c(cc3OC)C(=O)N3CCC[C@H]3C=N4)CC1)N=C[C@@H]1CCCN1C2=O ?
Response line: −4.00

----------
Tested on: UO-31
Test: NCI SRB cytotoxicity, Renal UO-31
Assay type: cell-based, human
Conditions: UO-31, Renal, 48 h
value_kind: Log LC 50 (mol/L)
Value expressed in mol/L; do not type the unit.

Record excerpt, results attached:
{"chemical_structure": "COc1cc2c(cc1OCCN1CCN(CCOc3cc4c(cc3OC)C(=O)N3CCC[C@H]3C=N4)CC1)N=C[C@@H]1CCCN1C2=O", "measurement_target": "UO-31", "obs_value": "−4.00"}
{"chemical_structure": "COc1cc2c(cc1OCCCCCN1CCN(CCCCCOc3cc4c(cc3OC)C(=O)N3CCC[C@H]3C=N4)CC1)N=C[C@@H]1CCCN1C2=O", "measurement_target": "UO-31", "obs_value": "−4.00"}

Turning now to a further record.
Prompt line: Please give the measured Log LC 50 for this compound: COc1cc2c(cc1OCCCN1CCN(CCCOc3cc4c(cc3OC)C(=O)N3CCC[C@H]3C=N4)CC1)N=C[C@@H]1CCCN1C2=O
Response line: −4.00

----------
Let's look at some molecules and their measured Log LC 50.
Tested on: COLO 205
Assay: NCI SRB cytotoxicity, Colon COLO 205
Assay type: cell-based, human
Conditions: COLO 205, Colon, 48 h
Kindly answer with a numeric value in mol/L, unit omitted.

{"chemical_structure": "COc1cc2c(cc1OCCCCN1CCN(CCCCOc3cc4c(cc3OC)C(=O)N3CCC[C@H]3C=N4)CC1)N=C[C@@H]1CCCN1C2=O", "measurement_target": "COLO 205", "Log LC 50 / mol/L": "−6.26"}
{"chemical_structure": "COc1cc2c(cc1OCCN1CCN(CCOc3cc4c(cc3OC)C(=O)N3CCC[C@H]3C=N4)CC1)N=C[C@@H]1CCCN1C2=O", "measurement_target": "COLO 205", "Log LC 50 / mol/L": "−4.00"}

Prompt line: Item under review: COc1cc2c(cc1OCCCCCN1CCN(CCCCCOc3cc4c(cc3OC)C(=O)N3CCC[C@H]3C=N4)CC1)N=C[C@@H]1CCCN1C2=O . Reported Log LC 50?
Response line: −4.00
